Hi there, I'd appreciate the recorded inhibition for every entry that follows.
# TESTED_ON: Mitogen-activated protein kinase 3 (Homo sapiens)
# ASSAY_CONTEXT: at 1 µM;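 note: values are mean percent inhibition of MAPK3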
Answer with a number only, understood to be in %.

**Query** Could you tell me which inhibition is on file for `O=S(=O)(CCOCc1ccc(-c2ccc3ncnc(Nc4ccc(OCc5cccc(F)c5)c(Cl)c4)c3c2)o1)c1ccccc1` ?
**Result** 1.69

**Query** State the recorded inhibition for this entry: `Cc1cc(-c2ccccn2)cc(C)c1/C=C/c1cncc(-c2nn[nH]n2)c1`
**Result** 3.69

**Query** Form field: reported inhibition of `COc1cccc(-n2nc(C)c3c(N/N=C(\C)c4ccncc4)ncnc32)c1`
**Result** -1.26

**Query** Bench note: what inhibition did `Cc1cc(O)cc(C)c1/C=C/c1cncc(C(=O)N(C)C)c1` show?
**Result** 2.75

**Query** Reported inhibition, compound `Cc1ccc(O)cc1Nc1ccnc2ccc(S(C)(=O)=O)cc12` : ____
**Result** 2.62

**Query** So what does the record say about inhibition for `COc1ccc2ncnc(Nc3ccc(OCc4ccccc4)cc3)c2c1` ?
**Result** 4.61

**Query** // returns reported inhibition for input `COC(=O)Nc1nc2cc(Oc3ccc(NC(=O)Nc4cccc(Br)c4)cc3)ccc2[nH]1`
**Result** 3.83
